Reference source: the supplement of paper PMC6555819

Known PBM binding z-score of a selection of sequences
# Tested on: PPARg homodimer (NR concentration 180 nM)
# protocol details: PBM binding z-score (relative to random genomic background probes); higher = stronger binding; sequences stand for … in GC…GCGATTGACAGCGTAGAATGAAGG
Answer with a bare number; do not write a unit.

Recorded results for 5 sequences are shown here.
residue string	observed result
CTATGTAGGTTAAGGGGATCATTCAGTTTGAAAG	1.89
CTATGTAGGTTAAGGGGGTCGTTCAGTTTGAAAG	2.23
CCAACTAGGTCACCAGGACAGTGAAGAGGTTGGA	2.72
TCGAGTAGGTTACGGGTGCATTCAGGGATGAAGA	0.289
CGAACTAGGTCACCAGGTCAGTGAAGAGGTTGGA	2.94

Consider now this further sequence.
The sequence listed as GACACAGGGTCAGCTAGAGGCCAGAGTATGGAAA shows PBM binding z-score equal to 1.74
